For each of the molecules below, state its EC50.
# Tested Target: UniProt:P07550
# Sequence (P07550 whole entry, species assumed): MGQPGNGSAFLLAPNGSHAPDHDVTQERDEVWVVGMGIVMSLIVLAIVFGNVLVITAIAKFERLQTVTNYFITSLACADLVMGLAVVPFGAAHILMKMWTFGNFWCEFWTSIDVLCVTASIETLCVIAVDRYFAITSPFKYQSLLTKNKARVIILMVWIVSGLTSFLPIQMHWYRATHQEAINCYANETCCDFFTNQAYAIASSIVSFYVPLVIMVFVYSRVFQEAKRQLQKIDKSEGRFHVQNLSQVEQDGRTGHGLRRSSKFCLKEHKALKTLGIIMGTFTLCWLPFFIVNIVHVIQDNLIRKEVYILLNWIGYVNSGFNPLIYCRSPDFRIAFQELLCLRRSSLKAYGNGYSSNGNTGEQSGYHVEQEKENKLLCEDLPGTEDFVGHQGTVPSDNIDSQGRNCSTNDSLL
# Assay Procedure: cAMP Gs dynamic HTRF assay, β2 expressing CHO cells
# Assay type: cell-based
# Details: B2-AR; CHO-K1 (HitHunter); read-out: Average pEC50 [Receptor subtype: B2-AR; Cell type: CHO-K1 (HitHunter)] (converted)

IN: Enter reported EC50 observed with UniProt:P07550 for CC(C)(C)NC[C@H](O)c1cccnc1-n1ccnn1
OUT: > 1000 nM

IN: Enter reported EC50 observed with UniProt:P07550 for CC(C)(C)NC[C@@H](O)c1ccc(C#N)c(C(F)(F)F)n1
OUT: > 1000 nM

IN: Enter reported EC50 observed with UniProt:P07550 for CC(C)c1cccc([C@@H](O)CNC(C)(C)C)n1
OUT: < 10 nM

IN: Enter reported EC50 observed with UniProt:P07550 for CC(C)(C)NC[C@H](O)c1cccc(NC2(C)CC2)n1
OUT: < 10 nM

IN: Enter reported EC50 observed with UniProt:P07550 for CC(C)NC[C@H](O)c1cccc(C(F)(F)F)n1
OUT: 10 to 100 nM

IN: Enter reported EC50 observed with UniProt:P07550 for CC(C)Oc1cccc([C@@H](O)CNC(C)(C)C)n1
OUT: < 10 nM

IN: Enter reported EC50 observed with UniProt:P07550 for CNc1cccc([C@H](O)CNC(C)(C)C)n1
OUT: 100 to 1000 nM

IN: Enter reported EC50 observed with UniProt:P07550 for C#Cc1cccc([C@H](O)CNC(C)(C)C)n1
OUT: 10 to 100 nM

IN: Enter reported EC50 observed with UniProt:P07550 for COc1ccc([C@@H](O)CNC(C)(C)C)c(C)n1
OUT: < 10 nM

IN: Enter reported EC50 observed with UniProt:P07550 for CC(C)(C)NC[C@@H](O)c1cccc(NC2CC2)n1
OUT: 100 to 1000 nM

IN: Enter reported EC50 observed with UniProt:P07550 for CC(C)(C)NC[C@H](O)c1cccnc1C1CCC1
OUT: 10 to 100 nM

IN: Enter reported EC50 observed with UniProt:P07550 for CNc1cccc([C@@H](O)CNC(C)(C)C)n1
OUT: < 10 nM

IN: Enter reported EC50 observed with UniProt:P07550 for CC(C)(C)NC[C@H](O)c1cccc(C2=N[C@H](C(=O)O)CS2)n1
OUT: > 1000 nM

IN: Enter reported EC50 observed with UniProt:P07550 for Cc1cccc([C@@H](O)CNC(C)(C)C)n1
OUT: 10 to 100 nM

IN: Enter reported EC50 observed with UniProt:P07550 for Cc1cc([C@H](O)CNC(C)(C)C)nc(C(F)(F)F)c1
OUT: 100 to 1000 nM

IN: Enter reported EC50 observed with UniProt:P07550 for COc1ccc(C[C@@H](C)NC[C@H](O)c2cccnc2C)cc1
OUT: < 10 nM

IN: Enter reported EC50 observed with UniProt:P07550 for CC(C)(C)NC[C@H](O)c1cccnc1C1CC1
OUT: 10 to 100 nM

IN: Enter reported EC50 observed with UniProt:P07550 for COc1ccc(C[C@@H](C)NC[C@H](O)c2cccc(OC(F)(F)F)n2)cc1
OUT: < 10 nM

IN: Enter reported EC50 observed with UniProt:P07550 for Cc1ccc([C@H](O)CNC(C)(C)C)nc1C#N
OUT: < 10 nM

IN: Enter reported EC50 observed with UniProt:P07550 for CC(C)(C)NC[C@H](O)c1cc(F)cnc1C1=CCCC1
OUT: 100 to 1000 nM

IN: Enter reported EC50 observed with UniProt:P07550 for CC(C)(C)NC[C@@H](O)c1cccc(-n2cccc2)n1
OUT: 10 to 100 nM

IN: Enter reported EC50 observed with UniProt:P07550 for CC(=O)Nc1cccc([C@H](O)CNC(C)(C)C)n1
OUT: 10 to 100 nM

IN: Enter reported EC50 observed with UniProt:P07550 for CC(C)Nc1cccc([C@@H](O)CNC(C)(C)C)n1
OUT: < 10 nM

IN: Enter reported EC50 observed with UniProt:P07550 for CC(C)(C)NC[C@H](O)c1cccc(C(F)F)n1
OUT: 10 to 100 nM

IN: Enter reported EC50 observed with UniProt:P07550 for Cc1ccc([C@@H](O)CNC(C)(C)C)cn1
OUT: 10 to 100 nM

IN: Enter reported EC50 observed with UniProt:P07550 for Cc1ccc(-c2cccc([C@@H](O)CNC(C)(C)C)n2)cc1
OUT: 100 to 1000 nM

IN: Enter reported EC50 observed with UniProt:P07550 for CC(C)(C)NC[C@H](O)c1cccc(Cl)n1
OUT: 10 to 100 nM

IN: Enter reported EC50 observed with UniProt:P07550 for CC(C)(C)NC[C@H](O)c1ccnc(C(F)(F)F)c1
OUT: > 1000 nM

IN: Enter reported EC50 observed with UniProt:P07550 for CC(C)Oc1ncccc1[C@@H](O)CNC(C)(C)C
OUT: 10 to 100 nM

IN: Enter reported EC50 observed with UniProt:P07550 for CC(C)(C)NC[C@@H](O)c1cccc(C2=CCCC2)n1
OUT: 10 to 100 nM

IN: Enter reported EC50 observed with UniProt:P07550 for Cn1cc(-c2cccc([C@@H](O)CNC(C)(C)C)n2)cn1
OUT: < 10 nM

IN: Enter reported EC50 observed with UniProt:P07550 for CC(C)(C)NC[C@@H](O)c1ccc(C#N)cn1
OUT: > 1000 nM

IN: Enter reported EC50 observed with UniProt:P07550 for CC(C)NC[C@@H](O)c1cccc(C(F)(F)F)n1
OUT: > 1000 nM

IN: Enter reported EC50 observed with UniProt:P07550 for CC(C)(C)NC[C@H](O)c1cccc(NC2CC(F)(F)C2)n1
OUT: < 10 nM
